- Assay info: Plasma concentration in ICR mouse at 25 mg/kg, ip at 1 hr postinjection by LC-tandem mass spectrometry analysis
- Format: ADME, organism-based
Experimental endpoint: concentration at 1 h (nM)
State the answer as a number, implicitly in nM.

*Q* Answer with the recorded concentration at 1 h of O=C(CCCCCCCCCCC(=O)N1CCN(C(=O)c2cc(Cc3n[nH]c(=O)c4ccccc34)ccc2F)CC1)NCCNc1cccc2c1C(=O)N(C1CCC(=O)NC1=O)C2=O (stereo unspecified) only.
*A* 1830

* * *

- Assay info: AUCall in ICR mouse at 25 mg/kg, ip by LC-tandem mass spectrometry analysis
- Format: ADME, organism-based
- Design: dose 25 mg/kg
- Condition notes: in vivo
Experimental endpoint: AUC (ng·h/mL)
Lab book: enter the figure in ng·h/mL, no units written.

*Q* State, in one line, measured AUC of O=C(CCCCCCCCCCC(=O)N1CCN(C(=O)c2cc(Cc3n[nH]c(=O)c4ccccc34)ccc2F)CC1)NCCNc1cccc2c1C(=O)N(C1CCC(=O)NC1=O)C2=O (stereo unspecified)
*A* 5320
